These entries and their values trace back to PubChem BioAssay (NCI).

system: SW-620 colon; assay: NCI tumour cell line growth inhibition, 48 h
READOUT_TYPE: TGI

MOLECULE	VALUE_MEASURED
CCOC(CI)O[C@@H]1C=C[C@H](OC(C)=O)C1 (stereo partly specified)	> 100 µM
CN1C(=O)c2c(c3c4ccccc4n(C4OC(CO)C(O)C(O)C4O)c3c3[nH]c4ccccc4c23)C1=O (stereo unspecified)	16.2 µM
CC1=C(C(=O)CC(=O)C(=O)Nc2ccccc2)Sc2ccccc2N1	> 100 µM
Cc1ccc(N=Nc2c(N)nn(-c3ccccc3)c2N)cc1	> 100 µM
C[C@]12CC[C@H](O)C=C1CC[C@@H]1[C@@H]2CC[C@]2(C)C(=N/O)/C(=C/c3ccncc3)C[C@@H]12	> 100 µM
Cc1cc(C)n(-c2nc3ccccc3c(=O)n2-c2ccccc2)n1	> 100 µM
Cc1cc(S(=O)(=O)n2ccnc2Oc2ccccc2)c(SSc2cc(Cl)c(C)cc2S(=O)(=O)n2ccnc2Oc2ccccc2)cc1Cl	> 100 µM
Cc1ccc(C2(O)CC(c3ccc([N+](=O)[O-])o3)=NN2C(=O)COc2ccccc2Cl)cc1 (stereo unspecified)	72.3 µM
CCOC(=O)NC	> 100 µM
CC(=O)OC1CCC2(C)C(CCC3C4CC=C(C(C)=O)C4(C)OC(=O)CC32)C1 (stereo unspecified)	3.43 µM
CSCCCNC(=O)c1csc(-c2csc(CCN)n2)n1	> 100 µM
O=C(OCC1OC(OC(=O)c2cc(O)c(O)c(OC(=O)c3cc(O)c(O)c(O)c3)c2)C(OC(=O)c2cc(O)c(O)c(OC(=O)c3cc(O)c(O)c(O)c3)c2)C(OC(=O)c2cc(O)c(O)c(OC(=O)c3cc(O)c(O)c(O)c3)c2)C1OC(=O)c1cc(O)c(O)c(OC(=O)c2cc(O)c(O)c(O)c2)c1)c1cc(O)c(O)c(OC(=O)c2cc(O)c(O)c(O)c2)c1 (stereo unspecified)	> 50 µM
c1ccc(N=c2sc3ccccc3sc2=Nc2ccccc2)cc1	3.27 µM
COC(=O)n1c(=O)n(-c2ccccc2)c(=O)n1C(=O)Nc1ccccc1	> 100 µM
COc1c(C)c(C/C=C(\C)CCCCO)c(OC)c(OC)c1OC	> 100 µM
O=C1c2cc3c(cc2[C@@H]2[C@H]1c1ccc([N+](=O)[O-])cc1C(=O)N2CCCCl)OCO3	> 100 µM
O=C(/C=C/c1ccccc1O)c1cccnc1	> 100 µM
Nc1ccc2c(c1)CC1c3ccccc3C(C2)c2ccccc21	> 100 µM
Cc1ncc(C(=O)Nc2ccc(CN3CCN(C)CC3)c(C(F)(F)F)c2)cc1C#Cc1cnc(N)c2ncccc12	2.9 µM
S=C(N/N=C(/c1ccccc1)c1ccccn1)Nc1ccc(Cl)cc1	11.1 µM
O=C(CC(=O)Nc1ccccc1O)Nc1ccccc1O	17.1 µM
CC#Cc1cc2c(cc1O)CC[C@@H]1[C@@H]2CC[C@]2(C)[C@@H](O)CC[C@@H]12	11.1 µM
O=C1c2ccccc2-c2n[nH]c3cccc1c23	> 100 µM
COc1cc(C)c2c(=O)c3c(oc2c1)C(=O)c1c(O)c(OC)cc(O)c1C3=O	10.7 µM
COc1cc2nc(N3CCCC3)nc(Nc3ccccc3)c2cc1OC	3.17 µM
O=C1C[C@@H](Sc2ccccc2)C2(OCCO2)[C@H]2ON3CCC[C@@H]3[C@@H]12	13.5 µM
N#CCN1CCOCCOCCN(CC#N)CCOCCOCC1	> 100 µM
CN1CCCC1=NC#N	> 100 µM
COc1cc(/C=C/c2ccc(OC(C)=O)cc2)cc(OC)c1OC	> 100 µM
O=C1c2cscc2C(=O)C1(O)O	42.1 µM
CCOC(=O)c1ccc(Nc2sc(C(=O)c3cccc([N+](=O)[O-])c3)c(N)c2C#N)cc1	6.63 µM
C/C=C/C(C#N)(Cc1ccccc1)OP1(=O)OC(c2ccccc2)C(C)N1C (stereo unspecified)	> 100 µM
O=C(O)CCCSc1nc2ccccc2s1	> 100 µM
COc1ccc(/C=C/C(=O)c2ccc3cc(OC)c(OC)cc3c2)cc1OC	14.2 µM
Cc1ccccc1NC(=O)C1C(=O)N(c2ccccc2C)C(=O)/C1=N\N (stereo unspecified)	> 100 µM
CC(C)c1c(O[Si](C(C)C)(C(C)C)C(C)C)c2c3c(ccc4c3c1OC4(C)C)C(C)CC2 (stereo unspecified)	> 100 µM
Cc1ccc(NC(=O)CC/C(CC(=O)c2ccc(F)cc2)=N\NC(=O)C(=O)NN)cc1C	> 100 µM
S=C=NCc1ccccc1	> 37.3 µM
CC[N+]1(C)CCC(O)(c2ccccc2)C(C(=O)c2ccccc2)C1 (stereo unspecified)	4.58 µM
N#Cc1c(C#N)c(-c2ccco2)n(-c2ccccc2)c1N	> 100 µM
COc1cc2c(cc1OC)C1CCc3ccccc3CN1CC2 (stereo unspecified)	> 100 µM
